Entry source: PubChem BioAssay (EPA / NIEHS)

- assay.remarks: CCTE_Padilla_ZF_144hpf_TERATOSCORE: (Legacy) CCTE's 144 Hour Post-fertilization zebrafish Assay Teratoscore, Padilla Lab (AID 2283679);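 as to AC50: zebrafish embryos with chorions exposed by immersion from 6-8 hpf to 5 dpf with daily renewal; teratogenicity score from eye scoring of death hatching and malformations at 144 hpf; higher score means more developmental defects relative to DMSO baseline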
The source made the active and inactive calls. The calls were made as follows: active = hit-call score of the fitted dose curve at least 0.9, where 1 is the maximum; inactive = score below 0.9.
parameter: AC50

Previously resolved entries follow.
{"compound": "CCCSP(=O)(OCC)SCCC", "AC50": "inactive"}
{"compound": "CCC(=O)Nc1ccc(Cl)c(Cl)c1", "AC50": "61.3 µM (active)"}
{"compound": "CN(C)C(=O)Nc1cccc(C(F)(F)F)c1", "AC50": "inactive"}
{"compound": "COc1ccc(C(=CC(=O)N2CCOCC2)c2ccc(Cl)cc2)cc1OC", "AC50": "23.6 µM (active)"}
{"compound": "COP(=O)(OC)C(O)C(Cl)(Cl)Cl (configuration not stated)", "AC50": "168 µM (active)"}

input: What does the data say about its AC50? Entry: `CCCCN(CC)c1c([N+](=O)[O-])cc(C(F)(F)F)cc1[N+](=O)[O-]`
output: 5.08 µM (active)

input: Entry `CNC(=O)ON=C(SC)C(=O)N(C)C` please
output: inactive
